measurement-description: D9 solubility in the liquors at isolation temperature
Assay type: physicochemical
condition-info: liquors of the equilibrated crystallisation suspension, 25 °C, organic solvent or mixture, thermodynamic from solid, batch 5; EtOAc/IPA (1:9); seed G/H; heat T 55; isolation T 25; 7.4 mL/g; SP 15; Exp 35
parameter: solubility
Express the reported value numerically, then name its unit.

State the recorded solubility for this entry: CCCCCc1cc(OC(=O)c2ccc3ccccc3c2)c2c(c1)OC(C)(C)[C@@H]1CCC(C)=C[C@@H]21 [Form B] 15.1 mg/mL

###

measurement-description: D9 solubility in the liquors at isolation temperature
Format: physicochemical
condition-info: p-Xylene/MeOH (1:9), 25 °C, organic solvent or mixture, thermodynamic from solid, batch 5, p-Xylene/MeOH (1:9), seed G, heat T 25, isolation T 25, SP 7, 40.0 mL/g
parameter: solubility (µg/mL)
Just the number please, in µg/mL, no unit attached.

State the recorded solubility for this entry: CCCCCc1cc(OC(=O)c2ccc3ccccc3c2)c2c(c1)OC(C)(C)[C@@H]1CCC(C)=C[C@@H]21 [Form B] 9800

###

measurement-description: D9 solubility in the liquors at isolation temperature
Assay type: physicochemical
condition-info: liquors of the equilibrated crystallisation suspension, 25 °C, organic solvent or mixture, thermodynamic from solid, Toluene/EtOH (2:8); isolation 25 °C; SP 18; 5.0 mL/g; read-out: D9 Solubility at Isolation T
parameter: solubility (mg/mL)
Just the number please, in mg/mL, no unit attached.

State the recorded solubility for this entry: CCCCCc1cc(OC(=O)c2ccc3ccccc3c2)c2c(c1)OC(C)(C)[C@@H]1CCC(C)=C[C@@H]21 [Form H] 36.2

###

measurement-description: Visual solubility of Form B
Format: physicochemical
condition-info: organic solvent or mixture, thermodynamic from solid; solvent 1,4-Dioxane; RT; read-out: Visual Solubility at RT
parameter: solubility

State the recorded solubility for this entry: CCCCCc1cc(OC(=O)c2ccc3ccccc3c2)c2c(c1)OC(C)(C)[C@@H]1CCC(C)=C[C@@H]21 [Form B] > 404 mg/mL

###

measurement-description: D9 solubility in the liquors at isolation temperature
Format: physicochemical
condition-info: Cyclohexanone/EtOH (1:9), 25 °C, organic solvent or mixture, thermodynamic from solid, batch 5, Cyclohexanone/EtOH (1:9), seed G/H, heat T 55, isolation T 25, SP 16, 5.0 mL/g
Method: At the end of each experiment, suspensions were equilibrated at the isolation temperature (25 or 5° C.) for at least 18 hours and the solids and liquors separated by centrifugation at the isolation temperature. The Exo/D9/D8 ratio (Exo-D9-THC-naphthoylester impurity/D9-THC-naphthoylester/D8-THC-naphthoylester) was determined in both the isolated solids and the liquors, from which the % Exo-depletion in the isolated solids was calculated. […]
parameter: solubility (mg/mL)
Just the number please, in mg/mL, no unit attached.

State the recorded solubility for this entry: CCCCCc1cc(OC(=O)c2ccc3ccccc3c2)c2c(c1)OC(C)(C)[C@@H]1CCC(C)=C[C@@H]21 [Form B] 21.1

###

measurement-description: D9 solubility in the liquors at isolation temperature
Type: physicochemical
condition-info: EtOAc/MeOH (1:3), 5 °C, organic solvent or mixture, thermodynamic from solid, batch 5, EtOAc/MeOH (1:3), seed G, heat T 25, isolation T 5, SP 11, 30.0 mL/g
parameter: solubility
Express the reported value numerically, then name its unit.

State the recorded solubility for this entry: CCCCCc1cc(OC(=O)c2ccc3ccccc3c2)c2c(c1)OC(C)(C)[C@@H]1CCC(C)=C[C@@H]21 [Form B] 11.2 mg/mL
